# ASSAY_REMARKS: Dissolution rate measurement in sink conditions, flow through cell system, FaSSIF, 37° C.
# Type: physicochemical
# ASSAY_CONTEXT: initial slope of accumulated % solubilized vs time, 0 to 10 minutes; sink condition in FaSSIF, 37° C.
Where a name gives a salt, the structure may show the parent alone.
READOUT_NAME: Initial Dissolution Rate
Respond using a number only.

Examples with their reported Initial Dissolution Rate follow.
> print(dat)
                                   molecule              readout.name  observed.result
1  C[C@@H](Oc1cc(-c2cnn(C3CCNCC3)c2)cnc1N)c1c(Cl)ccc(F)c1Cl  Initial Dissolution Rate              6.6
2  CNC(=O)c1cc(Oc2ccc(NC(=O)Nc3ccc(Cl)c(C(F)(F)F)c3)cc2)ccn1 [Exp 560, sorafenib tosylate]  Initial Dissolution Rate             0.47
3  Cc1cn(-c2cc(NC(=O)c3ccc(C)c(Nc4nccc(-c5cccnc5)n4)c3)cc(C(F)(F)F)c2)cn1 [Exp 500, nilotinib HCl]  Initial Dissolution Rate             0.27

Query molecule follows.
Determine from records and report Initial Dissolution Rate for `COc1cc2ncnc(Nc3ccc(F)c(Cl)c3)c2cc1OCCCN1CCOCC1`
2.2
